- Test system: Hela: human cervix epitheloid carcinoma
- ASSAY_NAME: In vitro anticancer assay (cytotoxicity), human solid tumor cells
- MEASUREMENT_CONDITIONS: Hela
EXPERIMENTAL_READOUT: IC50 Values of Cytotoxicities, Hela (µg/mL)
Give bare numbers, in µg/mL.

CCCCCCC#C/C=C\C#Cc1ccc(C(F)(F)F)cc1 [Compound 18]
5.86
N#Cc1ccccc1C#C/C=C\C#CCCCOC1CCCCO1 (stereo not shown) [Compound 2]
10.62
CCCCCCC#C/C=C\C#Cc1ccccc1C(F)(F)F [Compound 20]
2.15

Would you kindly look at the next entry?
Query: I'd like to know its IC50 Values of Cytotoxicities, Hela. The molecule in question is N#Cc1ccccc1C#C/C=C\C#CCOC1CCCCO1 (stereo not shown) [Compound 1]
Response: 9.97

----------
- Tested on: DLD (DLD-1): human colon adenocarcinoma
- ASSAY_NAME: In vitro anticancer assay (cytotoxicity), human solid tumor cells
- MEASUREMENT_CONDITIONS: Homo sapiens, DLD-1, read-out: IC50 Values of Cytotoxicities, DLD
Give measured IC50 for each item. Keep answers brief.

Here is how some molecules turned out for IC50.
CCCCCCC#C/C=C\C#Cc1cnccn1 [Compound 17, 2-(3-(Z)-Dodecen-1,5-diynyl)pyrazine]
3.89 µg/mL
CCCCCCC#C/C=C\C#Cc1ccc(C#C/C=C\C#CCCCCCC)cc1
> 20 µg/mL

Would you kindly look at the next entry?
Query: I'd like to know its IC50. The molecule in question is N#Cc1ccccc1C#C/C=C\C#Cc1ccccc1
Response: > 20 µg/mL

----------
- Tested on: DLD (DLD-1): human colon adenocarcinoma
- ASSAY_NAME: In vitro anticancer assay (cytotoxicity), human solid tumor cells
- MEASUREMENT_CONDITIONS: DLD
EXPERIMENTAL_READOUT: IC50 Values of Cytotoxicities, DLD (µg/mL)
Answers are plain numbers, in µg/mL.

Here is how some compounds turned out for IC50 Values of Cytotoxicities, DLD.
CCCCCCC#C/C=C\C#Cc1ccccc1C(F)(F)F
8.91
CCCCCCC#C/C=C\C#Cc1cccc(C(F)(F)F)c1
7.05
N#Cc1ccccc1C#Cc1ccccc1C#CCCCOC1CCCCO1 (stereo not drawn)
11.65

Would you kindly look at the next entry?
Query: Write down the reported IC50 Values of Cytotoxicities, DLD of CCCCCCC#C/C=C\C#Cc1ccccc1C(=O)O [Compound 22, 2-(3-(Z)-Dodecen-1,5-diynyl)benzoate] , test system: DLD (DLD-1): human colon adenocarcinoma.
Response: 7.27

----------
- Tested on: KM12
- MEASUREMENT_CONDITIONS: read-out: LC50 KM12; Table 4
Give measured CC50 for each item. Keep answers brief.

Here is how some compounds turned out for CC50.
N#Cc1ccccc1C#CC=CC#Cc1cnccn1 [Compound 30]
> 100 µM
N#Cc1ccccc1C#CC=CC#Cc1ccccn1 [Compound 27]
80.4 µM

Query: I'd like to know its CC50. The compound in question is N#Cc1ccccc1C#CC=CC#Cc1ccccc1N [Compound 32]
Response: > 100 µM

----------
Give measured CC50 for each item. Keep answers brief.
- Test system: IGROV1
- MEASUREMENT_CONDITIONS: read-out: LC50 IGROV1; Table 4

Here is how some compounds turned out for CC50.
N#Cc1ccccc1C#CC=CC#Cc1ccccc1N
> 100 µM
N#Cc1ccccc1C#CC=CC#Cc1cnccn1
> 100 µM

Would you kindly look at the next entry?
Query: I'd like to know its CC50. The compound in question is N#Cc1ccccc1C#CC=CC#Cc1ccccn1
Response: 79.1 µM

----------
- Tested on: DLD (DLD-1): human colon adenocarcinoma
- ASSAY_NAME: In vitro anticancer assay (cytotoxicity), human solid tumor cells
- MEASUREMENT_CONDITIONS: Homo sapiens, DLD-1, read-out: IC50 Values of Cytotoxicities, DLD
Give measured IC50 for each item. Keep answers brief.

CCCCCCC#C/C=C\C#Cc1ccc(-c2ccc(C#C/C=C\C#CCCCCCC)cc2)cc1 [Compound 12]
> 20 µg/mL
CCCCC#C/C=C\C#Cc1ccccc1 [Compound 6, (3Z)-Decen-1,5-diynylbenzene]
> 20 µg/mL

Would you kindly look at the next entry?
Query: Write down the reported IC50 of CCCCCC#C/C=C\C#Cc1ccccc1C#N [Compound 4, 2-(3(Z)-Undecen-1,5-diynyl)benzonitrile] , test system: DLD (DLD-1): human colon adenocarcinoma.
Response: > 20 µg/mL
